System: K4 kissing-loop RNA reporter
procedure.details: apparent KD of K4 kissing-loop reporter; higher = weaker reporter binding
cond: Eterna round: R107; input ligand: arginine 13.2 mM
# apparent KD of K4 kissing-loop reporter >= 100 nM gives fulfilled, anything below gives not fulfilled

Please review the entries below; each comes with its answer.
1) UUUAGGAGUGGUGUUGAUUAGGGAGCGGAAGGAGCGCCGAGGAAGGCAGGUAGGUCGCCGGAUUAUAGUGAUGUUAUGAAGAGGG [ExArg.M]; fulfilled
2) CGCGCGCGCGCGCGCGCGCGCGCGCGAAGUGAGGAUAUUUAGGGAGAAAGAAGGCACUAUAAAAUAUAGUGAUGUUAUAUAAGGG [SSFMNA.B]; fulfilled
3) AUGCGCGUGCGAUGGAAAUCGCACGCGCAUCGAGGACCGGUACGGCCGCCACUCGCUCGCGCCGAGUGAUGUUCGGCCGGCGAAC [#2 SameState - Tryptophan_A Attempt #3 (HarryS)]; fulfilled
4) UUCAGACUACUACUAUUUAGUAGUAUAUACUAGGAUAUCCAGAUAUGGAGAAGGAGUGAUGUUCCUUAGUAGUAGUGAAUUAAAU [KL-XFMN-A6]; fulfilled
5) UCGCAAGAAUCACUGUGGAGGACCUUGGCCAAGGAUAUCAAAGGAUUGAGAAGGUGGCGCCAAGUGAUGUUUGGAUGCCGGGCAG [theeternabot_exclusion_KL_FMN_A_36]; fulfilled

Has CGUAGCAGACGAAGGAGCGGCUACCUGAUUCAAGGUGAUGCUUGAGUGAUGUUCAGGUGUAGCCAGGUAGGUCGCGUCUGCUACG [Arg B Ex t9] a recorded apparent KD of K4 kissing-loop reporter greater than or equal to 100 nM?
fulfilled

Has AUAUCUGAUAGCAGUGAUGUUGCUUCAGAUACCAGACGAGAUCAUGUCCCUUGGCAGCUGACACGGCACGUGCUAGGUUAGAUGA [Theo A Ex t2] a recorded apparent KD of K4 kissing-loop reporter greater than or equal to 100 nM?
not fulfilled

Has UGACUACAUAAGGAUUAAUCCUAGUGAUGUUAGGAUAUGCUGAUAAGCAGAAGGAACGGAGAUCGAAGGAUCUCAUAUGUAGUCU [whbob_Ex_FMNA__2th195] a recorded apparent KD of K4 kissing-loop reporter greater than or equal to 100 nM?
fulfilled

Has GUUACGCAUGGAAGGAGCGCGAAUUUAAUUAGUGAGUGAUGUUCACAUAAAAUAUAUAAUACGCAGGUAGGUCGCCAUGUGUAAC [Ex Arginine B K4 1] a recorded apparent KD of K4 kissing-loop reporter greater than or equal to 100 nM?
not fulfilled

Has CGAUACGGAAAUACGUGUCUCUAUUCAGAAGGAGCGUGGUAGUACACAGGUAGGUCGCUGAAUUUUAAACUAGUGAUGUUAGUCU [JR_SSArginiA_Sub005] a recorded apparent KD of K4 kissing-loop reporter greater than or equal to 100 nM?
fulfilled

Has UGUACCGAGUCAGGAUAUGGCGUCGAAAGACGAAUGCUAGUGAUGUUAGGGAUCUGCGAAAGCAGUUCAGAAGGGACUUGGUACU [FmnBS 26 G36+U67] a recorded apparent KD of K4 kissing-loop reporter greater than or equal to 100 nM?
fulfilled

---

System: K4 kissing-loop RNA reporter;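 note: bound reporter read as fluorescence of individual clusters on recovered sequencing chips by microscopy, with normalized cluster intensities fitted with a binding model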
procedure.details: apparent KD of K4 kissing-loop reporter; higher = weaker reporter binding
cond: Eterna round: R107; input ligand: tryptophan 2.4 mM
# apparent KD of K4 kissing-loop reporter >= 200 nM gives rule met, anything below gives rule not met

Please review the entries below; each comes with its answer.
1. AUUUUUUACAGAAGGAGCGUGUUAUAAUAAUCAUAUUGCUUAGCGAGUGAUGUUCGCUUUACACAGGUAGGUCGCUGUUUAUUUA [JR_Nu_ExcArginiB_Sub029]; rule not met
2. UGUCUUUUUUUGAUGUUUUUUGUAUAAUGGCAGGAUAUCGUAGAUGCGAGAAGGGCUUUUAUGCGUUAUGAGUGAUGUUUGUAGG [vjjbvmullin]; rule met
3. GCAGUCAAUCAACCACGAAAGUGGAUGGAUACCAGCCCGAAACCGGGCCCUUGGCAGCCAGUGAUGUUGGAAGACUGCUUUAAAA [#SwitchBubble 15 #K4Late]; rule met
4. AAAAUAAAUAGCAGUCAUGGAGUGAUGUUCCGAGGACCGGUACGGCCGCCACUCGACCAUCAUAAGAUGGAUGGCGAAGACUGCA [#SwitchBubble 24 #K4Early]; rule met
5. UGUACCGAGUGAGGAUAUGUCGUCGAAAGACGAAAUGGAGUGAUGUUCCUUAAACUGCGAAAGCAGACAGAAGGCACUUGGUACU [FmnBS 29 G11+C75]; rule not met

Okay, now this sequence:
Has AUGUUGAGCGGAAGGAGCGGCUGAACCAGUGAUGUUGGUUAAUCCAAGUGAUGUUGGAAAAGCCAGGUAGGUCGCCGCUUUAUGU [Same State Arg B GF 2] a recorded apparent KD of K4 kissing-loop reporter greater than or equal to 200 nM?
rule met
